B1: ZNF449 (parent)
chain: YRHQRLHTGERPYECTVCKKRFTR

- Variants of: B1
- method description: protein stability index of a GFP-peptide fusion (GPS, HEK-293T) (PSI 1-6); higher = more stable;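 note: lentivirally expressed fusions sorted by FACS into six bins by GFP to DsRed ratio, PSI derived from sequencing read proportions per bin multiplied by bin number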
- stated conditions: c terminus: a fixed tail appended
protein stability index values, listed per item
experimental readout: protein stability index

# mutant designation, test result
data = [
    ("V17S", 2.5),
    ("R5G", 2.31),
    ("H3Q", 2.21),
    ("L6Y", 2.74),
    ("K20E", 2.1),
    ("T16P", 2.22),
    ("E14F", 2.11),
    ("K20D", 1.89),
    ("L6V", 2.17),
    ("R11L", 2.09),
    ("T23R", 2.85),
    ("Y1L", 2.83),
    ("K19M", 2.12),
    ("R24W", 1.87),
    ("T8H", 2.7),
    ("C18K", 3.77),
    ("F22P", 2.98),
    ("C18Q", 3.27),
    ("C18D", 3.24),
    ("H3F", 1.66),
    ("E14D", 2.23),
    ("P12Y", 2.62),
]
